B1: Glucocorticoid receptor, residues 419 to 494; numbered along this chain, P04150 (parent)
chain: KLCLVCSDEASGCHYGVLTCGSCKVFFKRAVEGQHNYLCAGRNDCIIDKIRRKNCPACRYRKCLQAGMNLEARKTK

Variants of: B1
Assay info: abundance fitness (aPCA) (normalised: wild type 0, dead -1); higher = more abundant; growth selection in yeast, the domain comes from the species named
Measurement conditions: Homo sapiens
abundance fitness below -0.2 gives Criterion not met; abundance fitness at or above it gives Criterion met.

Sample answers from the record:
[[record]]
variant_name = "G67E"
group = "Criterion not met"

[[record]]
variant_name = "D48E"
group = "Criterion met"

[[record]]
variant_name = "L64C"
group = "Criterion met"


Query: Answer whether abundance fitness of S7C is greater than or equal to -0.2.
Result: Criterion met

Query: Okay, and V25Y ?
Result: Criterion met

Query: Same read-out for K76V ?
Result: Criterion met

Query: Try the variant E71N
Result: Criterion met

Query: Also G12S ?
Result: Criterion met
